system: SK-MEL-28 melanoma; experiment: NCI-60 one-dose screen, 48 h; details: 10 µM unless noted
The panel holds about 83,000 compounds, 20% with a hit somewhere; the sample as a whole holds those more often. Activity calls are given as the source filed them. The calls were made as follows: active = growth percent below 10; inactive = the rest.
Answer with one of the outcomes given here: 1 for active, 0 for inactive

Worked cases, answers included:
[
  {
    "chemical.smiles": "O=C(Nc1cccc(-c2nc(-c3ccc(NC(=O)c4cccnc4)cc3Cl)no2)c1)Nc1ccc(NC(=O)C2CC2)c(C(F)(F)F)c1",
    "label.class": 1
  },
  {
    "chemical.smiles": "NS(=O)(=O)c1ccc(-n2cc(CC=O)nn2)cc1",
    "label.class": 0
  },
  {
    "chemical.smiles": "CC1=C2C(=C[C@@](C)(COS(N)(=O)=O)[C@@H]2O)C(=O)[C@](C)(O)C12CC2",
    "label.class": 0
  },
  {
    "chemical.smiles": "CCC(=O)Nc1ccc(-c2nc(-c3cccc(O)c3)c(-c3ccnc(Br)c3)[nH]2)cc1",
    "label.class": 0
  }
]

Now turn to the next molecule.
Q) Test call for this molecule, please: CCNC(=O)Oc1ccc(/C(=C(/C)c2ccc(Cl)cc2)c2ccc(OCCN3CCCC3)cc2)cc1
A) 0

* * *

test system: KM12 colon; assay: NCI-60 one-dose screen, 48 h; details: 10 µM unless noted
Compounds without any hit were thinned out: in the full panel of roughly 83,000, 20% have a hit. Active and inactive are the calls of the source. How the source made its calls: active means growth percent below 10; inactive means the rest.
Could you please pick one outcome from this set? active, inactive

[
  {
    "compound": "Clc1ccc(-c2csc(Nc3cccc(Nc4csc(-c5ccc(Cl)cc5)n4)c3)n2)cc1",
    "assayed.system": "KM12 colon",
    "label.class": "inactive"
  },
  {
    "compound": "Cc1cc(-c2ccc3nc(N)sc3c2)nc2ccc3[nH]ncc3c12",
    "assayed.system": "KM12 colon",
    "label.class": "inactive"
  },
  {
    "compound": "COc1cc(C(=O)c2cc(C(C)=O)c3c4ccccc4ccn23)cc(OC)c1OC",
    "assayed.system": "KM12 colon",
    "label.class": "inactive"
  },
  {
    "compound": "CCc1ccc(NC(=O)N[C@@H](Cc2cc(F)cc(F)c2)C(=O)N[C@@H]2C(=O)N3CCC[C@H]3C(=O)N3CCO[C@H](C)[C@H]3C(=O)N[C@@H](CO)C(=O)N3C[C@H](C)C[C@H]3C(=O)O[C@H]2C)c(F)c1",
    "assayed.system": "KM12 colon",
    "label.class": "inactive"
  },
  {
    "compound": "CCNC(=O)Oc1ccc(/C(=C(/C)c2ccccc2)c2ccc(OCCN3CCCC3)cc2)cc1",
    "assayed.system": "KM12 colon",
    "label.class": "inactive"
  },
  {
    "compound": "C#CCOc1ccc(C(Nc2ccc(Cl)cc2)c2nnnn2C2CCCCC2)cc1 (stereo not drawn)",
    "assayed.system": "KM12 colon",
    "label.class": "inactive"
  },
  {
    "compound": "Cc1ccc(NC(=O)c2cccc(CN3CCN(C)CC3)c2)cc1Oc1ccc(-c2[nH]nc3ncnc(N)c23)cc1",
    "assayed.system": "KM12 colon",
    "label.class": "inactive"
  },
  {
    "compound": "COc1ccc(-c2nc(SCCC(C)C)nc(N/N=C\\c3ccc(O)cc3)c2C#N)cc1",
    "assayed.system": "KM12 colon",
    "label.class": "inactive"
  },
  {
    "compound": "CCOc1c(C#N)c(Nc2ccc(S(N)(=O)=O)cc2)c(C#N)c2nnc(C)n12",
    "assayed.system": "KM12 colon",
    "label.class": "inactive"
  },
  {
    "compound": "CCCCSc1nnc(-c2ccc(-c3ccc(Cl)cc3)nc2C)o1",
    "assayed.system": "KM12 colon",
    "label.class": "inactive"
  }
]

Q) State the result this test recorded for COc1ccc(S(=O)(=O)n2cc(C=O)c3ccccc32)c(OC)c1 .
A) inactive

Q) Test call for this compound, please: CCC(C)[C@H]1OC(=O)[C@H](C(C)C)N(C)C(=O)[C@@H](C(C)C)OC(=O)[C@H](C(C)C)N(C)C(=O)[C@@H](C(C)CC)OC(=O)[C@H](C(C)C)N(C)C1=O (stereo partly drawn)
A) inactive

Q) // param item: COCCOc1ccc(-c2csc(NC(=O)CN3CCN(CCO)CC3)n2)cc1NS(=O)(=O)c1cccc2c(N(C)C)cccc12 ; yields the recorded call
A) inactive
